Molecular target: C-X-C chemokine receptor type 6 (Homo sapiens, UniProt O00574)
Sequence (O00574 whole entry): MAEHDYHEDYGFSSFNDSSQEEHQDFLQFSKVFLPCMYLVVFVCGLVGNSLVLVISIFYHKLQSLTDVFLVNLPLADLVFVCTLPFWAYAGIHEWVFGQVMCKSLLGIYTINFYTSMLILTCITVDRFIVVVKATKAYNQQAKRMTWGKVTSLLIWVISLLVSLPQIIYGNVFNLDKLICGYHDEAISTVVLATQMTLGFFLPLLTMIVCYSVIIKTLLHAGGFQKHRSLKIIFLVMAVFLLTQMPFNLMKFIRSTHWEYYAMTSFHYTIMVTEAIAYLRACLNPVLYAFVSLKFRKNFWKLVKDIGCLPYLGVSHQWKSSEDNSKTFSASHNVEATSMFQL
Experiment: Agonist activity at CXCR6 (unknown origin)
pEC50: −log10 of the molar value.
measured_metric: pEC50

record_smiles=CC1=CCC[C@H]1NC(=O)Nc1ccc(Cl)c(S(=O)(=O)[C@@]2(C)CCOC2)c1O experimental_value="< 5.00"

----------
Target: CX3C chemokine receptor 1 (Homo sapiens)
Sequence (P49238 whole entry): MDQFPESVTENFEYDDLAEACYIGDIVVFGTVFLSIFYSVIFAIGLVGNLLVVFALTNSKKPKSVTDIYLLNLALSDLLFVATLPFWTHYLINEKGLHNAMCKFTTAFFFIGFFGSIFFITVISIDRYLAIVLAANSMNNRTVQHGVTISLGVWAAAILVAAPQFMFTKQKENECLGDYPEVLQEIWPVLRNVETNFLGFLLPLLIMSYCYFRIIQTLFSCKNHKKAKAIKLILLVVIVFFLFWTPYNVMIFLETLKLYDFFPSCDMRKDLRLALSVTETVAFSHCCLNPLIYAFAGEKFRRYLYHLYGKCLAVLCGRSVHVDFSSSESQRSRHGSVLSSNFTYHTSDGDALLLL
Experiment: Agonist activity at CX3CR1 (unknown origin)
pEC50: −log10 of the molar value.
measured_metric: pEC50

record_smiles=CC1=CCC[C@H]1NC(=O)Nc1ccc(Cl)c(S(=O)(=O)[C@@]2(C)CCOC2)c1O target_entity="CX3C chemokine receptor 1 (Homo sapiens)" experimental_value="< 5.00"
